test.method.notes: Single escalating dose, age and food-effect pharmacokinetic study of T-62 soft gelatin capsules (Example 11)
Type: in vivo
test.conditions: human, plasma, po, 400 mg, Part B, elderly healthy subjects, fasted; single oral dose 4 × 100 mg (oral dosage form 4); arithmetic mean (SD); n = 12; read-out: AUC0-48
recorded.metric: AUC(0-t)

Query string: Which AUC(0-t) value is on record for Nc1sc2c(c1C(=O)c1ccc(Cl)cc1)CCCC2 [T-62] ?
Result string: 1200 ng·h/mL

====

test.method.notes: Multiple escalating dose pharmacokinetic study of T-62 soft gelatin capsules (Example 12)
Type: in vivo
test.conditions: both sexes, human, plasma, po, 200 mg, Steady state (Day 6), 2 × 100 mg BID (oral dosage form 4), healthy adults; arithmetic mean (SD); n = 9
recorded.metric: Cmax
# output: number + unit

Query string: Which Cmax value is on record for Nc1sc2c(c1C(=O)c1ccc(Cl)cc1)CCCC2 ?
Result string: 107 ng/mL

====

test.method.notes: Single escalating dose, age and food-effect pharmacokinetic study of T-62 soft gelatin capsules (Example 11)
Format: in vivo
test.conditions: human, plasma, po, 200 mg, Part A, young healthy subjects, fasted; single oral dose 2 × 100 mg (oral dosage form 4); arithmetic mean (SD); n = 9
recorded.metric: Cmax (ng/mL)
Answer in ng/mL, number only, no unit symbol.

Query string: Which Cmax value is on record for Nc1sc2c(c1C(=O)c1ccc(Cl)cc1)CCCC2 ?
Result string: 47.7

====

test.method.notes: Single escalating dose, age and food-effect pharmacokinetic study of T-62 soft gelatin capsules (Example 11)
Assay type: in vivo
test.conditions: human, plasma, po, 100 mg, Part A, young healthy subjects, fasted; single oral dose 100 mg (oral dosage form 4); arithmetic mean (SD); n = 9
recorded.metric: AUC(0-inf) (ng·h/mL)
Answer in ng·h/mL, number only, no unit symbol.

Query string: Which AUC(0-inf) value is on record for Nc1sc2c(c1C(=O)c1ccc(Cl)cc1)CCCC2 [T-62] ?
Result string: 106

====

test.method.notes: Multiple escalating dose pharmacokinetic study of T-62 soft gelatin capsules (Example 12)
Format: in vivo
test.conditions: both sexes, human, plasma, po, 400 mg, Steady state (Day 6), 4 × 100 mg BID (oral dosage form 4), healthy adults; arithmetic mean (SD); n = 9
Experimental: A single-center, randomized, double-blind, parallel-group, placebo-controlled study of the safety, tolerability, and pharmacokinetics of escalating multiple doses of a T-62 composition in soft gelatin capsules (oral dosage form 4) in healthy adult male and female subjects was carried out. Three cohorts of 12 subjects were enrolled for the study (19-38 years of age). Subjects in each cohort were randomly assigned in a 3:1 allocation to receive multiple doses of either T-62 (n=9) or placebo (n=3). […]
recorded.metric: AUC(0-inf) (ng·h/mL)
Answer in ng·h/mL, number only, no unit symbol.

Query string: Which AUC(0-inf) value is on record for Nc1sc2c(c1C(=O)c1ccc(Cl)cc1)CCCC2 [T-62] ?
Result string: 2210

====

test.method.notes: Single escalating dose, age and food-effect pharmacokinetic study of T-62 soft gelatin capsules (Example 11)
Assay type: in vivo
test.conditions: human, plasma, po, 400 mg, Part A, young healthy subjects, fasted; single oral dose 4 × 100 mg (oral dosage form 4); arithmetic mean (SD); n = 9
Excerpt: A single-center, 3-part study: Parts A and B were randomized, double-blind, and placebo-controlled, and evaluated the safety, tolerability, and pharmacokinetics of single, escalating dose levels of a T-62 composition in soft gelatin capsules (oral dosage form 4) in young healthy subjects (Part A), and a single dose of a T-62 composition in soft gelatin capsules (oral dosage form 4) in elderly healthy subjects (Part B). […]
recorded.metric: Cmax (ng/mL)
Answer in ng/mL, number only, no unit symbol.

Query string: Which Cmax value is on record for Nc1sc2c(c1C(=O)c1ccc(Cl)cc1)CCCC2 [T-62] ?
Result string: 110

====

test.method.notes: Single escalating dose, age and food-effect pharmacokinetic study of T-62 soft gelatin capsules (Example 11)
Format: in vivo
test.conditions: human, plasma, po, 400 mg, Part C, Fasted, young healthy subjects; single oral dose 4 × 100 mg (oral dosage form 4); arithmetic mean (SD); n = 14
recorded.metric: AUC(0-inf) (ng·h/mL)
Answer in ng·h/mL, number only, no unit symbol.

Query string: Which AUC(0-inf) value is on record for Nc1sc2c(c1C(=O)c1ccc(Cl)cc1)CCCC2 ?
Result string: 576

====

test.method.notes: Single escalating dose, age and food-effect pharmacokinetic study of T-62 soft gelatin capsules (Example 11)
Format: in vivo
test.conditions: human, plasma, po, 800 mg, Part A, young healthy subjects, fasted; single oral dose 8 × 100 mg (oral dosage form 4); arithmetic mean (SD); n = 9; read-out: AUC0-48
recorded.metric: AUC(0-t) (ng·h/mL)
Answer in ng·h/mL, number only, no unit symbol.

Query string: Which AUC(0-t) value is on record for Nc1sc2c(c1C(=O)c1ccc(Cl)cc1)CCCC2 ?
Result string: 978

====

test.method.notes: Single escalating dose, age and food-effect pharmacokinetic study of T-62 soft gelatin capsules (Example 11)
Assay type: in vivo
test.conditions: human, plasma, po, 1000 mg, Part A, young healthy subjects, fasted; single oral dose 10 × 100 mg (oral dosage form 4); arithmetic mean (SD); n = 9; read-out: AUC0-48
Description: A single-center, 3-part study: Parts A and B were randomized, double-blind, and placebo-controlled, and evaluated the safety, tolerability, and pharmacokinetics of single, escalating dose levels of a T-62 composition in soft gelatin capsules (oral dosage form 4) in young healthy subjects (Part A), and a single dose of a T-62 composition in soft gelatin capsules (oral dosage form 4) in elderly healthy subjects (Part B). […]
recorded.metric: AUC(0-t) (ng·h/mL)
Answer in ng·h/mL, number only, no unit symbol.

Query string: Which AUC(0-t) value is on record for Nc1sc2c(c1C(=O)c1ccc(Cl)cc1)CCCC2 ?
Result string: 1370

====

test.method.notes: Single escalating dose, age and food-effect pharmacokinetic study of T-62 soft gelatin capsules (Example 11)
Assay type: in vivo
test.conditions: human, plasma, po, 400 mg, Part C, Fed, young healthy subjects; single oral dose 4 × 100 mg (oral dosage form 4); median; n = 16
Description: A single-center, 3-part study: Parts A and B were randomized, double-blind, and placebo-controlled, and evaluated the safety, tolerability, and pharmacokinetics of single, escalating dose levels of a T-62 composition in soft gelatin capsules (oral dosage form 4) in young healthy subjects (Part A), and a single dose of a T-62 composition in soft gelatin capsules (oral dosage form 4) in elderly healthy subjects (Part B). […]
recorded.metric: Tmax

Query string: Which Tmax value is on record for Nc1sc2c(c1C(=O)c1ccc(Cl)cc1)CCCC2 [T-62] ?
Result string: 3.5 h

====

test.method.notes: Multiple escalating dose pharmacokinetic study of T-62 soft gelatin capsules (Example 12)
Assay type: in vivo
test.conditions: both sexes, human, plasma, po, 400 mg, Steady state (Day 6), 4 × 100 mg BID (oral dosage form 4), healthy adults; τ = 12 hours; arithmetic mean (SD); n = 9; read-out: AUC0-τ
recorded.metric: AUC (ng·h/mL)
Answer in ng·h/mL, number only, no unit symbol.

Query string: Which AUC value is on record for Nc1sc2c(c1C(=O)c1ccc(Cl)cc1)CCCC2 [T-62] ?
Result string: 958

====

test.method.notes: Single escalating dose, age and food-effect pharmacokinetic study of T-62 soft gelatin capsules (Example 11)
Type: in vivo
test.conditions: human, plasma, po, 400 mg, Part A, young healthy subjects, fasted; single oral dose 4 × 100 mg (oral dosage form 4); arithmetic mean (SD); n = 9
Source text: A single-center, 3-part study: Parts A and B were randomized, double-blind, and placebo-controlled, and evaluated the safety, tolerability, and pharmacokinetics of single, escalating dose levels of a T-62 composition in soft gelatin capsules (oral dosage form 4) in young healthy subjects (Part A), and a single dose of a T-62 composition in soft gelatin capsules (oral dosage form 4) in elderly healthy subjects (Part B). […]
recorded.metric: AUC(0-inf) (ng·h/mL)
Answer in ng·h/mL, number only, no unit symbol.

Query string: Which AUC(0-inf) value is on record for Nc1sc2c(c1C(=O)c1ccc(Cl)cc1)CCCC2 ?
Result string: 557

====

test.method.notes: Single escalating dose, age and food-effect pharmacokinetic study of T-62 soft gelatin capsules (Example 11)
Assay type: in vivo
test.conditions: human, plasma, po, 1000 mg, Part A, young healthy subjects, fasted; single oral dose 10 × 100 mg (oral dosage form 4); median; n = 9
recorded.metric: Tmax
# output: number + unit

Query string: Which Tmax value is on record for Nc1sc2c(c1C(=O)c1ccc(Cl)cc1)CCCC2 [T-62] ?
Result string: 3 h

====

test.method.notes: Multiple escalating dose pharmacokinetic study of T-62 soft gelatin capsules (Example 12)
Assay type: in vivo
test.conditions: both sexes, human, plasma, 400 mg; Day 1, single dose 4 × 100 mg (oral dosage form 4), healthy adults; median; n = 9
recorded.metric: Tmax (h)
Answer in h, number only, no unit symbol.

Query string: Which Tmax value is on record for Nc1sc2c(c1C(=O)c1ccc(Cl)cc1)CCCC2 [T-62] ?
Result string: 2
